This collection of values is drawn from patent US20230226074A1.

Reported pEC50 values are given for each entry in this list.
Target: human ferroportin (Homo sapiens, UniProt Q9NP59)
Construct: luciferase reporter (probably NanoLuc, inferred from the Nano-Glo Luciferase Assay System read-out); expressed in transfected cells; host or cells: CHO cells, stably transfected, expression induced with doxycycline
Experiment: In-vitro ferroportin internalization assay (luciferase reporter)
Type: cell-based
Conditions: average pEC50; stably-transfected CHO cell line expressing human ferroportin tagged to a luciferase reporter; 6 h incubation with test compound
testReadout: pEC50

molecule="COc1ccc(NC(=O)CN(C)c2nc(-c3ccccn3)nc3sc(C)c(C)c23)cc1 [Compound 181]" observed=7.2
molecule="COCCN(CCOC)c1nc(-c2ccccn2)nc2scc(-c3ccccc3)c12 [Compound 211]" observed=6.7
molecule="c1ccc(-c2nc3c(c(N4CCCOC5CCCC54)n2)CCC3)nc1 (stereo not drawn) [Compound 187]" observed=6.8
molecule="CN(CCO)c1nc(-c2ccccn2)nc2sc(-c3ccccc3)cc12 [Compound 223]" observed=5.6
molecule="COCCNc1nc(-c2ccccn2)nc2scc(-c3ccccc3)c12 [Compound 212]" observed=5.9
molecule="CC1CCN(c2nc(-c3ccccn3)nc3c2CCC3)C1 (stereo not drawn) [Compound 188]" observed=5.7
molecule="Cc1cc(NCCC(=O)N2CCCCCC2)nc(-c2ccccn2)n1 [Compound 232]" observed=5.5
molecule="CNC(=O)CN(C)c1nc(-c2ccccn2)nc2sc(-c3ccccc3)cc12 [Compound 239]" observed=5.8
molecule="COc1ccnc(-c2nc3c(c(N(C)CC(=O)NC(C)(C)CO)n2)CCC3)c1 [Compound 136]" observed=7.6

###

Biological target: human ferroportin (Homo sapiens)
Construct: luciferase reporter (probably NanoLuc, inferred from the Nano-Glo Luciferase Assay System read-out); expressed in transfected cells; host or cells: CHO cells, stably transfected, expression induced with doxycycline
Sequence (Q9NP59 1-571): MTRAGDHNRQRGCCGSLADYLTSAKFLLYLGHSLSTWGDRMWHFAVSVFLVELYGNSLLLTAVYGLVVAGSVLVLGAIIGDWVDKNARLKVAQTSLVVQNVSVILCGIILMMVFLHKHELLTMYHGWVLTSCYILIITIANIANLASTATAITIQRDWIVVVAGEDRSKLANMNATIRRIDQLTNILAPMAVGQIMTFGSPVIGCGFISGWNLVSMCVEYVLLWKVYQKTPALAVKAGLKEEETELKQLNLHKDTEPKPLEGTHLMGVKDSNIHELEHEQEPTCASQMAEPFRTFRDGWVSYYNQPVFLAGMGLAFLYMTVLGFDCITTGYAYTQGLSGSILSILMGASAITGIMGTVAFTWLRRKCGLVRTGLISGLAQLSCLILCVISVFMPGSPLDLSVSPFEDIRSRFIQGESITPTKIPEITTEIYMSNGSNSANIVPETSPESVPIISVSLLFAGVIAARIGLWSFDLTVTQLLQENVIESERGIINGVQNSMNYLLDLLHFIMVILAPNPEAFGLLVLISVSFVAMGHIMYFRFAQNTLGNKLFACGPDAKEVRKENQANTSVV
Assay: In-vitro ferroportin internalization assay (luciferase reporter)
Type: cell-based
Conditions: average pEC50; stably-transfected CHO cell line expressing human ferroportin tagged to a luciferase reporter; 6 h incubation with test compound
testReadout: pEC50

molecule=CCN(CCO)c1nc(-c2ccccn2)nc2sc(C)c(-c3ccccc3)c12 observed=5.4
molecule=CN1CCN(c2nc(-c3ccccn3)nc3sc(-c4ccccc4)cc23)CC1 observed=5.3
molecule="Cc1sc2nc(-c3ccccn3)nc(N(C)CC(C)O)c2c1-c1ccccc1 (stereo not shown)" observed=6.3
molecule=COc1ccc(NC(=O)CN(C)c2nc(-c3cc4cn[nH]c4cn3)nc3c2CCC3)nc1 observed=7.5
